test system: LOC_OS04G35114-cb001; assay: thermal shift delta Tm vs DMSO control; higher = stronger stabilization (binding); settings: 12.5 µM; protein concentration 2 µM;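 further: purified Escherichia coli-expressed rice kinase domain construct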
OUTCOME MEASURE: thermal shift delta Tm (°C)

# MOLECULE, OUTCOME MEASURE, OBSERVED
rows = [
    ("Cc1cc(C(=O)Nc2nc3cccc(Cl)c3n2[C@@H]2CCCCN(C(=O)/C=C/CN(C)C)C2)ccn1 [Nazartinib (EGF816, NVS-816)]", "thermal shift delta Tm", 1.87),
    ("Cc1cc2c(F)c(Oc3ncnn4cc(OC[C@@H](C)O)c(C)c34)ccc2[nH]1", "thermal shift delta Tm", 5.26),
    ("C#Cc1cccc(Nc2ncnc3cc(OCCOC)c(OCCOC)cc23)c1", "thermal shift delta Tm", 6.16),
    ("C=CC(=O)Nc1cccc(Sc2nc(Nc3ccc(N4CCN(C)CC4)cc3)ncc2Cl)c1", "thermal shift delta Tm", 4.33),
    ("O=C1Nc2ccc(I)cc2/C1=C/c1cc(Br)c(O)c(Br)c1", "thermal shift delta Tm", 1.76),
    ("CC(C)NC[C@@H](C(=O)N1CCN(c2ncnc3c2[C@H](C)C[C@H]3O)CC1)c1ccc(Cl)cc1", "thermal shift delta Tm", 0.7),
    ("Cc1cnc(Nc2ccc(OCCN3CCCC3)cc2)nc1Nc1cccc(S(=O)(=O)NC(C)(C)C)c1", "thermal shift delta Tm", 3.12),
    ("NCC(=O)Nc1ccc(-n2nc(C(F)(F)F)cc2-c2ccc3c(ccc4ccccc43)c2)cc1", "thermal shift delta Tm", -0.57),
]

---

tested on: LOC_OS04G35114-cb001; test: thermal shift delta Tm vs DMSO control; higher = stronger stabilization (binding); conditions: 12.5 µM; protein concentration 2 µM
Counter-ions that a name gives are not always drawn.
Output y for thermal shift delta Tm not less than 3 °C; output n otherwise.

# MOLECULE, CLASS
rows = [
    ("CCN(CC)CCNC(=O)c1c(C)[nH]c(/C=C2\\C(=O)Nc3ccc(F)cc32)c1C [Sunitinib Malate]", "y"),
    ("COc1ccc2c(c1)[C@]1(C[C@H]1c1ccc3c(/C=C/c4ccc(CN5C[C@@H](C)O[C@@H](C)C5)cc4)n[nH]c3c1)C(=O)N2", "y"),
    ("CN1CC[C@H](c2c(O)cc(O)c3c(=O)cc(-c4ccccc4Cl)oc23)[C@H](O)C1 [Flavopiridol HCl]", "n"),
    ("O=C(NOCC(O)CO)c1cc(Br)c(F)c(F)c1Nc1ccc(I)cc1F (centres undefined)", "n"),
    ("COc1cccc(-n2c(=O)[nH]c3cc(Cl)n(-c4ccc(-c5cccc(OC)c5O)cc4)c3c2=O)c1", "n"),
    ("COc1cc2ncnc(Oc3ccc(CC(=O)Nc4cnn(C(C)C)c4)cc3)c2cc1OC", "n"),
    ("O=C(O)c1ccc2c3c1cccc3c(=O)n1c3ccccc3nc21", "n"),
    ("CO[C@@H](C(=O)N1Cc2[nH]nc(NC(=O)c3ccc(N4CCN(C)CC4)cc3)c2C1)c1ccccc1", "y"),
    ("CNc1nc(Nc2cnn([C@H]3CCN(C4COC4)C[C@@H]3F)c2Cl)ncc1C(F)(F)F", "y"),
]

---

tested on: LOC_OS01G13800-cb001; experiment: thermal shift delta Tm vs DMSO control; higher = stronger stabilization (binding); conditions: 12.5 µM; protein concentration 2 µM
Listed next: entries and their corresponding thermal shift delta Tm.
OUTCOME MEASURE: thermal shift delta Tm (°C)

# COMPOUND, OUTCOME MEASURE, OBSERVED
rows = [
    ("Cc1nc(-c2cn3c(n2)-c2ccc(-c4cnn(C(C)(C)C(N)=O)c4)cc2OCC3)n(C(C)C)n1", "thermal shift delta Tm", 0.32),
    ("Fc1ccc2[nH]ccc2c1-c1nc(N2CCOCC2)c2sc(CN3CCN(CC4CC4)CC3)cc2n1", "thermal shift delta Tm", -0.36),
    ("CC1(C)OC(=O)C=C[C@]2(C)[C@H]3CC[C@@]4(C)[C@H](c5ccoc5)OC(=O)[C@H]5O[C@]54[C@]3(C)C(=O)C[C@@H]12", "thermal shift delta Tm", 0.37),
    ("COCCOc1ccc2c(c1)ncn2-c1ccc2cccc(N3CCC(N)CC3)c2n1", "thermal shift delta Tm", -0.56),
    ("CC1=C(C(=O)Nc2ccc3[nH]ncc3c2)C(c2ccc(F)cc2)NC(=O)N1 (centres undefined)", "thermal shift delta Tm", 0.88),
    ("Cn1nccc1Nc1nccc(-c2ccn([C@H](CO)c3ccc(Cl)c(F)c3)c(=O)c2)n1", "thermal shift delta Tm", -0.2),
    ("CCN(C)S(=O)(=O)Nc1ccc(F)c(C(=O)c2c[nH]c3ncc(-c4cnc(C5CC5)nc4)cc23)c1F", "thermal shift delta Tm", 0.03),
    ("Cn1cc(-c2cnn3c(N)c(Br)c([C@@H]4CCCNC4)nc23)cn1", "thermal shift delta Tm", 0.21),
    ("COc1ccc2c(Oc3ccc(NC(=O)c4c(C)n(CC(C)(C)O)n(-c5ccccc5)c4=O)nc3)ccnc2c1", "thermal shift delta Tm", -0.07),
    ("O=c1cc(-c2ccccc2)oc2c(O)c(O)ccc12 [7,8-Dihydroxyflavone]", "thermal shift delta Tm", 2.97),
    ("C=CC(=O)N[C@H]1CCOC[C@H]1Nc1ncc2cc(-c3c(Cl)c(OC)cc(OC)c3Cl)ccc2n1", "thermal shift delta Tm", -0.14),
    ("CS(=O)(=O)CCNCc1ccc(-c2ccc3ncnc(Nc4ccc(OCc5cccc(F)c5)c(Cl)c4)c3c2)o1 [Lapatinib]", "thermal shift delta Tm", 0.94),
    ("CCn1c(C(=O)N(C2CC2)C2CC2)cc2c3c(ncn3C)c(Nc3cc(C)n(C)n3)nc21", "thermal shift delta Tm", 0.41),
    ("C[C@@H](N)c1ccc(C(=O)Nc2ccnc3[nH]ccc23)cc1", "thermal shift delta Tm", 0.63),
    ("CS(=O)(=O)c1cccc(CNc2nc(Nc3ccc4c(c3)CCC(=O)N4)ncc2C(F)(F)F)c1", "thermal shift delta Tm", -0.34),
    ("O=C1NC(=O)C(=Cc2ccc(-c3ccc(F)cc3)o2)S1 (stereo in doubt)", "thermal shift delta Tm", 0.53),
    ("Cc1cc(Nc2cc(N3CCN(C)CC3)nc(/C=C/c3ccccc3)n2)n[nH]1 [ENMD-2076 L-(+)-Tartaric acid]", "thermal shift delta Tm", -0.25),
    ("Cc1cc2c(F)c(Oc3ncnn4cc(OC[C@@H](C)O)c(C)c34)ccc2[nH]1", "thermal shift delta Tm", 0.42),
    ("O=C1NC(=O)/C(=C/c2ccc(-c3ccc(F)cc3O)o2)S1", "thermal shift delta Tm", 2.09),
    ("C[C@H]1CNC(=O)c2cnn3ccc(nc23)N[C@H](C)c2cc(F)ccc2O1", "thermal shift delta Tm", -0.18),
    ("COc1ccc(-c2ccc3c(N4CCOCC4)nc(N4C[C@@H](C)O[C@@H](C)C4)nc3n2)cc1CO", "thermal shift delta Tm", -0.38),
    ("CCCCCCCCCCCCc1ccc(S(=O)(=O)Nc2nncs2)cc1", "thermal shift delta Tm", 0.29),
    ("COc1cc2c(Nc3ccc(NC(=O)c4ccccc4)cc3)ncnc2cc1OCCCN1CCOCC1", "thermal shift delta Tm", 0.65),
    ("FC(F)(F)c1ccc(CNc2ccc(Cc3c[nH]c4ncc(Cl)cc34)cn2)cn1", "thermal shift delta Tm", 0.85),
    ("CC(C)(C)c1ccc(S(=O)(=O)/C=C/C#N)cc1", "thermal shift delta Tm", 0.14),
    ("COc1cc(N2CCC(N(C)C)CC2)ccc1Nc1ncc(Cl)c(Nc2ccccc2P(C)(C)=O)n1", "thermal shift delta Tm", -0.94),
    ("CNC(=O)c1cc(Oc2ccc(NC(=O)Nc3cc(C(C)(C)C)nn3-c3ccc4ncccc4c3)c(F)c2)ccn1", "thermal shift delta Tm", 0.38),
    ("O=C1NC(=O)C(c2ccccc2[N+](=O)[O-])=C1Nc1ccc(O)c(Cl)c1", "thermal shift delta Tm", 0.72),
    ("CCCCNc1ncc(C(=O)NCc2ccc(-n3ccnc3)cc2)c(NC2CCC(O)CC2)n1 (centres undefined)", "thermal shift delta Tm", -0.06),
    ("COc1nccnc1NS(=O)(=O)c1ccc(NC(=O)/C=C/c2ccc([N+](=O)[O-])s2)cc1 [Necrosulfonamide]", "thermal shift delta Tm", 1.27),
    ("COc1ccc2c(c1)[C@]1(C[C@H]1c1ccc3c(/C=C/c4ccc(CN5C[C@@H](C)O[C@@H](C)C5)cc4)n[nH]c3c1)C(=O)N2", "thermal shift delta Tm", -0.69),
    ("Cc1c(CN2CCN(C(=O)[C@H](C)O)CC2)sc2c(N3CCOCC3)nc(-c3cnc(N)nc3)nc12", "thermal shift delta Tm", 0.56),
    ("CC(C)Nc1cc(-c2c[nH]c(C(=O)N[C@H](CO)c3cccc(Cl)c3)c2)c(Cl)cn1", "thermal shift delta Tm", 0.75),
    ("O=C(NCc1ccccc1)c1csc(Nc2ccncn2)n1", "thermal shift delta Tm", 1.01),
]
